Species on record: Rattus norvegicus
Experiment: DrugMatrix - Regimen: Daily Repeat
Format: toxicity, organism-based, Sprague-Dawley
Design: regimen Daily Repeat, gender Male, age 6-8 weeks
Conditions: in vivo, sc, 2 mg/kg, […], tissue Blood, route mini-PUMP - SUBCUTANEOUS, dose level High, time 14 day, vehicle 100 % SALINE
observedProperty: ABSOLUTE LYMPHOCYTE (cells/µL)
Express the result in cells/µL but write the number alone.

Reported ABSOLUTE LYMPHOCYTE, compound CC(C)NCC(O)c1ccc(O)c(O)c1 (stereo unspecified) : ____ 11600

---

Species on record: Rattus norvegicus
Assay: DrugMatrix - Regimen: Daily Repeat
Assay type: toxicity, organism-based, Sprague-Dawley
Design: regimen Daily Repeat, gender Male, age 6-8 weeks
Details: in vivo, po, 0 mg/kg, 120 h, tissue Plasma, route oral GAVAGE, dose level Control, time 5 day, vehicle 100 % WATER
CARBON DIOXIDE by entry:
Lab book: enter the figure in mmol/L, no units written.

                                   compound  observedproperty  unitannotation  number
0  Cc1ccc(NC(=O)c2ccc(CN3CCN(C)CC3)cc2)cc1Nc1nccc(-c2cccnc2)n1    CARBON DIOXIDE          mmol/L   27.33
1  C[C@]12C=CC(=O)C=C1CC[C@@H]1[C@@H]2[C@@H](O)C[C@@]2(C)[C@H]1CC[C@]2(O)C(=O)CO    CARBON DIOXIDE          mmol/L   27.67
2  O.O.O.O.O.O.[Cl-].[Cl-].[Sr+2] [STRONTIUM CHLORIDE HEXAHYDRATE]    CARBON DIOXIDE          mmol/L   27.33

Next compound, please.
Could you share which CARBON DIOXIDE value was measured for CCN(CC)CCNC(=O)c1cc(S(C)(=O)=O)ccc1OC [TIAPRIDE] ? 27.33
